TEST METHOD NOTES: Pharmacokinetics after intravenous or oral administration of 10 mg/kg EZE to control and CCl4-induced rats
Type: in vivo
ASSAY SETUP: Sprague-Dawley, rat, plasma, po, 10 mg/kg, p.o. 10 mg/kg EZE, CCl4-induced rats
# reported AUC(0-t); entries follow
Report the value in ng·h/mL with no unit label.

O=C1[C@H](CC[C@H](O)c2ccc(F)cc2)[C@@H](c2ccc(O)cc2)N1c1ccc(F)cc1 [EZE, reference compound] = 189
O=C(O)[C@H]1O[C@@H](Oc2ccc([C@@H]3[C@@H](CC[C@H](O)c4ccc(F)cc4)C(=O)N3c3ccc(F)cc3)cc2)[C@H](O)[C@@H](O)[C@@H]1O [EZE-Ph, ezetimibe phenoxy β-D-glucuronide] = 18300

In the following, a different molecule is considered.
Data request: Fill blank: measured AUC(0-t) of the molecule O=C(O)[C@H]1O[C@@H](O[C@@H](CC[C@H]2C(=O)N(c3ccc(F)cc3)[C@@H]2c2ccc(O)cc2)c2ccc(F)cc2)[C@H](O)[C@@H](O)[C@@H]1O [EZE-Hy, ezetimibe hydroxy β-D-glucuronide] is ____.
Data returned: 1170

====

# reported Tmax; entries follow
TEST METHOD NOTES: Pharmacokinetics after intravenous or oral administration of 10 mg/kg EZE to control and CCl4-induced rats
Type: in vivo
ASSAY SETUP: Sprague-Dawley, rat, plasma, iv, 10 mg/kg, i.v. 10 mg/kg EZE, control rats
Report the value in h with no unit label.

O=C(O)[C@H]1O[C@@H](O[C@@H](CC[C@H]2C(=O)N(c3ccc(F)cc3)[C@@H]2c2ccc(O)cc2)c2ccc(F)cc2)[C@H](O)[C@@H](O)[C@@H]1O [EZE-Hy, ezetimibe hydroxy β-D-glucuronide] = 16.8

Data request: Fill blank: measured Tmax of the molecule O=C(O)[C@H]1O[C@@H](Oc2ccc([C@@H]3[C@@H](CC[C@H](O)c4ccc(F)cc4)C(=O)N3c3ccc(F)cc3)cc2)[C@H](O)[C@@H](O)[C@@H]1O [EZE-Ph, ezetimibe phenoxy β-D-glucuronide] is ____.
Data returned: 0.083

====

# reported AUC(0-t); entries follow
TEST METHOD NOTES: Pharmacokinetics after intravenous or oral administration of 10 mg/kg EZE to control and CCl4-induced rats
Type: in vivo
ASSAY SETUP: Sprague-Dawley, rat, plasma, iv, 10 mg/kg, i.v. 10 mg/kg EZE, CCl4-induced rats
Report the value in ng·h/mL with no unit label.

O=C(O)[C@H]1O[C@@H](O[C@@H](CC[C@H]2C(=O)N(c3ccc(F)cc3)[C@@H]2c2ccc(O)cc2)c2ccc(F)cc2)[C@H](O)[C@@H](O)[C@@H]1O [EZE-Hy, ezetimibe hydroxy β-D-glucuronide] = 4250

Data request: Fill blank: measured AUC(0-t) of the compound O=C1[C@H](CC[C@H](O)c2ccc(F)cc2)[C@@H](c2ccc(O)cc2)N1c1ccc(F)cc1 [EZE, reference compound] is ____.
Data returned: 4610

Data request: Fill blank: measured AUC(0-t) of the compound O=C(O)[C@H]1O[C@@H](Oc2ccc([C@@H]3[C@@H](CC[C@H](O)c4ccc(F)cc4)C(=O)N3c3ccc(F)cc3)cc2)[C@H](O)[C@@H](O)[C@@H]1O [EZE-Ph, ezetimibe phenoxy β-D-glucuronide] is ____.
Data returned: 40400

The origin of these recorded values is paper PMC9785202.
